- Tested on: Candida tropicalis
- Test Details: Antimicrobial activity against Candida tropicalis by micro-broth dilution method
- Assay type: functional
MIC80 for assorted compounds
# include the unit after the value

In [3]: df
Out[3]:
                                   compound  value_observed
0  CCCCN(Cc1ccc(Cl)cc1)CC(O)(Cn1cncn1)c1ccc(F)cc1F (stereo not given)         1 µg/mL

What MIC80 appears in the records for this compound with Candida tropicalis? CCCN(Cc1ccc(C)cc1)CC(O)(Cn1cncn1)c1ccc(F)cc1F (stereo not given)
0.0625 µg/mL

What MIC80 appears in the records for this compound with Candida tropicalis? CC(C)N(Cc1ccc(Cl)cc1)CC(O)(Cn1cncn1)c1ccc(F)cc1F (stereo not given)
0.25 µg/mL

What MIC80 appears in the records for this compound with Candida tropicalis? CCCCN(Cc1ccccc1Br)CC(O)(Cn1cncn1)c1ccc(F)cc1F (stereo not given)
0.25 µg/mL

What MIC80 appears in the records for this compound with Candida tropicalis? CCC(C)n1ncn(-c2ccc(N3CCN(c4ccc(OCC5COC(Cn6cncn6)(c6ccc(Cl)cc6Cl)O5)cc4)CC3)cc2)c1=O (stereo not given)
0.125 µg/mL

What MIC80 appears in the records for this compound with Candida tropicalis? CCCN(Cc1ccc(CC)cc1)CC(O)(Cn1cncn1)c1ccc(F)cc1F (stereo not given)
0.25 µg/mL

What MIC80 appears in the records for this compound with Candida tropicalis? CCCN(Cc1cccc(Cl)c1)CC(O)(Cn1cncn1)c1ccc(F)cc1F (stereo not given)
0.25 µg/mL

What MIC80 appears in the records for this compound with Candida tropicalis? Cc1ccc(CN(CC(O)(Cn2cncn2)c2ccc(F)cc2F)C(C)C)cc1 (stereo not given)
1 µg/mL

What MIC80 appears in the records for this compound with Candida tropicalis? CC(C)N(Cc1ccc(F)cc1)CC(O)(Cn1cncn1)c1ccc(F)cc1F (stereo not given)
0.25 µg/mL

What MIC80 appears in the records for this compound with Candida tropicalis? CCCCN(Cc1ccccc1Cl)CC(O)(Cn1cncn1)c1ccc(F)cc1F (stereo not given)
0.25 µg/mL

----------
- Test system: Trichophyton rubrum
- Test Details: Antimicrobial activity against Trichophyton rubrum by micro-broth dilution method
- Type: functional
MIC80 for assorted compounds
Form entry: value (µg/mL) — number only.

>>> print(df.to_string())
                                   compound        system_tested  readout_type  unit_symbol  value_observed
0  CCCCN(Cc1cccc(Cl)c1)CC(O)(Cn1cncn1)c1ccc(F)cc1F (stereo not drawn)  Trichophyton rubrum         MIC80        µg/mL               1

Data request, read-out MIC80, for CCCCN(Cc1ccc(Cl)cc1)CC(O)(Cn1cncn1)c1ccc(F)cc1F (stereo not drawn)
1

Data request, read-out MIC80, for CCCN(Cc1ccc(Cl)cc1Cl)CC(O)(Cn1cncn1)c1ccc(F)cc1F (stereo not drawn)
1

----------
MIC80 for assorted compounds
- Test system: Candida tropicalis
- Test Details: Antimicrobial activity against Candida tropicalis by micro-broth dilution method
- Format: functional
Form entry: value (µg/mL) — number only.

Check out these entries, answers already filled in.
In [3]: df
Out[3]:
                                   compound  value_observed
0  Cc1ccccc1CN(CC(O)(Cn1cncn1)c1ccc(F)cc1F)C(C)C (stereo not drawn)            0.25
1  CC(C)N(Cc1ccc([N+](=O)[O-])cc1)CC(O)(Cn1cncn1)c1ccc(F)cc1F (stereo not drawn)            0.25

Data request, read-out MIC80, for CC(C)N(Cc1ccccc1Cl)CC(O)(Cn1cncn1)c1ccc(F)cc1F (stereo not drawn)
0.25

Entry source: ChEMBL document CHEMBL1153921
